# Assay notes: Rat PK, cassette dosing, IV and PO
# Format: in vivo
# Protocol conditions: plasma, 1 mg/kg; Table 1, titled Intravenous (IV) Administration in Rat; Mean (SE)
Endpoint: AUC (ng·h/mL)
Entry rule: numbers only, all in ng·h/mL.

Need AUC, item Cc1noc(C)c1-c1cnc2c(-c3ccc(C(=O)O)cc3)cn(C(c3ccccn3)c3ccccn3)c2c1 [Compound Z, reference compound]
125

Another: `Cc1noc(C)c1-c1cnc2c(-c3ccc(C(=O)O)cc3)cn(C(C)(c3ccccn3)c3ccccn3)c2c1`
7670
